target.desc: GCN2 (Homo sapiens)
assay.details: Cellular assay for GCN2 activity (phospho-eIF2alpha immunocytochemistry, tryptophanol-stimulated U2OS cells)
Type: cell-based
Parameters: endogenous in cells; host or cells: U2OS
cond: 2 hours compound, then 600 μM tryptophanol 30 minutes, anti-phospho-eIF2alpha, read-out: IC50 GCN2 (cell assay)
Sequence (Q9P2K8 whole entry): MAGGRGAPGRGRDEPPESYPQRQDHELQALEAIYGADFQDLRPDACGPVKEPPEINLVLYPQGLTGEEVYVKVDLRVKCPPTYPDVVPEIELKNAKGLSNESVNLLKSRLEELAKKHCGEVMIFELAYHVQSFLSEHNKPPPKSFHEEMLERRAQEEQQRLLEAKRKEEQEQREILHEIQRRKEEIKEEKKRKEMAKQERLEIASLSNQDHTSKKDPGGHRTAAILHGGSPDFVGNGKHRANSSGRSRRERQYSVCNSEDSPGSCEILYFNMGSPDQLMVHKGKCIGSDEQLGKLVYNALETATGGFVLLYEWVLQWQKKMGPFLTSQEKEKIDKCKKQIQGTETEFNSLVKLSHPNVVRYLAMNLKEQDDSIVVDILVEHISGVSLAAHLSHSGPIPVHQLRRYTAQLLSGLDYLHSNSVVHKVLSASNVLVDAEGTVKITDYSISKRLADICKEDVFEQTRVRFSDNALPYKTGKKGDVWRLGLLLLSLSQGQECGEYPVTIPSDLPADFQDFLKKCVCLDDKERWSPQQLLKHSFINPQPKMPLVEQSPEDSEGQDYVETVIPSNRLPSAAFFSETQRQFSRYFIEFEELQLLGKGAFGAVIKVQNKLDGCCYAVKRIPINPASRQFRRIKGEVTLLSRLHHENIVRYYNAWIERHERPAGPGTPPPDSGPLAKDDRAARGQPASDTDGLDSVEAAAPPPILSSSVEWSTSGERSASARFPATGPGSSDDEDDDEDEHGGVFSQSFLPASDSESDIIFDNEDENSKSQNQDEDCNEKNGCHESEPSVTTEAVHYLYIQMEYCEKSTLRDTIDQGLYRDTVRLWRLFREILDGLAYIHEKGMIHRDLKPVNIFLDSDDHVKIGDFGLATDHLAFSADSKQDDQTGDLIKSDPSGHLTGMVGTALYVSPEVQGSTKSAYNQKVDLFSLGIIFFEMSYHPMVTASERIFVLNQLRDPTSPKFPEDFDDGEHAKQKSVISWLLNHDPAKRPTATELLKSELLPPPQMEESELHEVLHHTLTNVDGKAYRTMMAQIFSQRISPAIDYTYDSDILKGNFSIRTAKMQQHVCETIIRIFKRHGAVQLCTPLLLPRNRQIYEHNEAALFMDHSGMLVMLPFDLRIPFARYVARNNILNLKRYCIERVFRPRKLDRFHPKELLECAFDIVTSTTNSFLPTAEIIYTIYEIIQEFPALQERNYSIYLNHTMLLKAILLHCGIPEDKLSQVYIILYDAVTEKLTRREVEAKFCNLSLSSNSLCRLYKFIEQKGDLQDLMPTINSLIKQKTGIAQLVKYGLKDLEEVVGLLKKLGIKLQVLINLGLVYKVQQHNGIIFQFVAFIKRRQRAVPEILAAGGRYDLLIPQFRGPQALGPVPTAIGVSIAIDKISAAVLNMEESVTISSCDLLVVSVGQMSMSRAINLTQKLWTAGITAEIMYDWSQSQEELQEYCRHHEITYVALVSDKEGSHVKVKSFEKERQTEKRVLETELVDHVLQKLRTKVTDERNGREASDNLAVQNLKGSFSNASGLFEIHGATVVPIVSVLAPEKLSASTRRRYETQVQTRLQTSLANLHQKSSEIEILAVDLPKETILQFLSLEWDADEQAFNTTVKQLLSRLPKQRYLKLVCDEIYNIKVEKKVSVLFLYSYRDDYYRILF
pIC50: −log10 of the molar value.
result.type: pIC50

Considering CC(C)(O)c1ccc(-n2nnc3cnc(Nc4cnn(C5CCOCC5)c4)nc32)cc1 , its pIC50 with GCN2 (Homo sapiens) was recorded as 5.52 to 6.52

Considering COCCOc1ccc(-n2nnc3cnc(Nc4cnn(C5CCN(C(C)=O)C5)c4)nc32)cc1 (centres unmarked) , its pIC50 with GCN2 (Homo sapiens) was recorded as 4.30 to 5.52

Considering c1cnc2ccc(-n3nnc4cnc(Nc5cnn(C6CCOCC6)c5)nc43)cc2c1 , its pIC50 with GCN2 (Homo sapiens) was recorded as 5.52 to 6.52

Considering COCCOc1ccc(-n2nnc3cnc(Nc4cnn(C)c4)nc32)cc1 , its pIC50 with GCN2 (Homo sapiens) was recorded as 5.52 to 6.52

Considering CCn1cc(Nc2ncc3nnn(-c4ccc(C(N)=O)cc4)c3n2)cn1 , its pIC50 with GCN2 (Homo sapiens) was recorded as 4.30 to 5.52

Considering CCn1cc(Nc2ncc3nnn(-c4ccc5ncccc5c4)c3n2)cn1 , its pIC50 with GCN2 (Homo sapiens) was recorded as 5.52 to 6.52

Considering CCOc1ccc(-n2nnc3cnc(Nc4cnn(CCC5CCNCC5)c4)nc32)cc1 , its pIC50 with GCN2 (Homo sapiens) was recorded as 5.52 to 6.52

Considering CN1CCC(n2cc(Nc3ncc4nnn(-c5ccc6ncccc6c5)c4n3)cn2)CC1 , its pIC50 with GCN2 (Homo sapiens) was recorded as 5.52 to 6.52

* * *

target.desc: GCN2 (Homo sapiens)
assay.details: Cellular assay for GCN2 activity (phospho-eIF2alpha immunocytochemistry, tryptophanol-stimulated U2OS cells)
Format: cell-based
Parameters: endogenous in cells; host or cells: U2OS
cond: 2 hours compound, then 600 μM tryptophanol 30 minutes, anti-phospho-eIF2alpha, read-out: IC50 GCN2 (cell assay)
Can you tell me IC50 for the items I'm about to list?

Considering CCOc1ccc(-n2nnc3cnc(Nc4cnn(CCN5CCOCC5)c4)nc32)cc1 [Compound A115] , its IC50 with GCN2 (Homo sapiens) was recorded as 3 to 50 µM

Considering COc1ccc(-n2nnc3cnc(Nc4cnn(C5CCN(C)CC5)c4)nc32)nc1 [Compound A77] , its IC50 with GCN2 (Homo sapiens) was recorded as 0.3 to 3 µM

Considering CN1CCC(n2cc(Nc3ncc4nnn(-c5ccc(C(N)=O)cc5)c4n3)cn2)CC1 [Compound A69] , its IC50 with GCN2 (Homo sapiens) was recorded as 0.3 to 3 µM

Considering CCn1cc(-n2nnc3cnc(Nc4cnn(C5CCOCC5)c4)nc32)cn1 [Compound A83] , its IC50 with GCN2 (Homo sapiens) was recorded as 3 to 50 µM

Considering Fc1cccc(-n2nnc3cnc(Nc4cnn(CCn5cccn5)c4)nc32)c1 [Compound A126] , its IC50 with GCN2 (Homo sapiens) was recorded as 3 to 50 µM

Considering CN1CCC(n2cc(Nc3ncc4nnn(-c5ccc(Cl)c(F)c5)c4n3)cn2)CC1 [Compound A44] , its IC50 with GCN2 (Homo sapiens) was recorded as 0.3 to 3 µM

Considering COCCOc1ccc(-n2nnc3cnc(Nc4cnn(CCn5cccn5)c4)nc32)cc1 [Compound A65] , its IC50 with GCN2 (Homo sapiens) was recorded as 0.3 to 3 µM

Considering CN1CCC(n2cc(Nc3ncc4nnn(-c5cccc(C(N)=O)c5)c4n3)cn2)CC1 [Compound A67] , its IC50 with GCN2 (Homo sapiens) was recorded as 3 to 50 µM

Considering COc1ccc(-n2nnc3cnc(Nc4cnn(C5COC5)c4)nc32)cc1 [Compound A23] , its IC50 with GCN2 (Homo sapiens) was recorded as 0.3 to 3 µM

Considering CCn1cc(Nc2ncc3nnn(-c4ccc5c(c4)NC(=O)C5(C)C)c3n2)cn1 [Compound A84] , its IC50 with GCN2 (Homo sapiens) was recorded as 0.3 to 3 µM

Considering CCOc1ccc(-n2nnc3cnc(Nc4cnn(CC)c4)nc32)cc1 [Compound A46] , its IC50 with GCN2 (Homo sapiens) was recorded as 0.3 to 3 µM

Considering COc1cc(-n2nnc3cnc(Nc4cnn(C5CCN(C)CC5)c4)nc32)ccn1 [Compound A30] , its IC50 with GCN2 (Homo sapiens) was recorded as 0.3 to 3 µM

Considering CCn1cc(Nc2ncc3nnn(-c4cnn(CC)c4)c3n2)cn1 [Compound A106] , its IC50 with GCN2 (Homo sapiens) was recorded as 3 to 50 µM

Considering c1nn(C2CCOCC2)cc1Nc1ncc2nnn(-c3ccc4cn[nH]c4c3)c2n1 [Compound A92] , its IC50 with GCN2 (Homo sapiens) was recorded as < 0.3 µM

Considering COc1ccc(-n2nnc3cnc(Nc4cnn(C5CCN(C)CC5)c4)nc32)cc1 [Compound A8] , its IC50 with GCN2 (Homo sapiens) was recorded as 0.3 to 3 µM

Considering CN1CCC(n2cc(Nc3ncc4nnn(-c5ccc6[nH]ncc6c5)c4n3)cn2)CC1 [Compound A93] , its IC50 with GCN2 (Homo sapiens) was recorded as 3 to 50 µM

Considering CCn1cc(Nc2ncc3nnn(-c4ccc(C(C)(C)OCCO)cc4)c3n2)cn1 [Compound A127] , its IC50 with GCN2 (Homo sapiens) was recorded as 0.3 to 3 µM

Considering c1ccc(-n2nnc3cnc(Nc4cn[nH]c4)nc32)cc1 [Compound A4] , its IC50 with GCN2 (Homo sapiens) was recorded as 3 to 50 µM

* * *

target.desc: UniProt:Q9P2K8
assay.details: GCN2 enzyme assay (TR-FRET Lanthascreen, phosphorylation of GFP-eIF2alpha)
Type: biochemical
cond: 10 μM ATP, 80 nM GFP-eIF2alpha, 30 nM GCN2, room temperature
Sequence (Q9P2K8 whole entry, species assumed): as the sequence (Q9P2K8 whole entry) above
result.type: IC50

Measured IC50 of Fc1ccc(-n2nnc3cnc(Nc4cnn(C5CCOCC5)c4)nc32)cc1F : 300 to 3000 nM

Measured IC50 of CCOc1ccc(-n2nnc3cnc(Nc4cnn(C5CCNCC5)c4)nc32)cc1 : < 300 nM

Measured IC50 of c1cnc2cc(-n3nnc4cnc(Nc5cnn(C6CCOCC6)c5)nc43)ccc2n1 : < 300 nM

Measured IC50 of Fc1cccc(-n2nnc3cnc(Nc4cnn(CCCC5CCNCC5)c4)nc32)c1 : < 300 nM

Measured IC50 of CN1CCC(n2cc(Nc3ncc4nnn(-c5ccc6cccnc6c5)c4n3)cn2)CC1 : < 300 nM

Measured IC50 of COc1ccc(-n2nnc3cnc(Nc4ncn[nH]4)nc32)cc1 : 3000 to 50000 nM

Measured IC50 of CC(C)(C)OCCn1cc(Nc2ncc3nnn(-c4ccc(Cl)c(F)c4)c3n2)cn1 : 300 to 3000 nM

Measured IC50 of COCCOc1ccc(-n2nnc3cnc(Nc4cnn(C5CCNC5)c4)nc32)cc1 (centres unmarked) : < 300 nM

* * *

target.desc: GCN2 (Homo sapiens, UniProt Q9P2K8)
assay.details: Cellular assay for GCN2 activity (phospho-eIF2alpha immunocytochemistry, tryptophanol-stimulated U2OS cells)
Assay type: cell-based
Design: endogenous in cells; host or cells: U2OS
cond: 2 hours compound, then 600 μM tryptophanol 30 minutes, anti-phospho-eIF2alpha, read-out: IC50 GCN2 (cell assay)
result.type: IC50

Measured IC50 of COc1ccc(-n2nnc3cnc(Nc4cnn(C5CCNCC5)c4)nc32)cc1 : 0.3 to 3 µM

Measured IC50 of COCCN1CCC(n2cc(Nc3ncc4nnn(-c5ccnc(OC)c5)c4n3)cn2)CC1 : 3 to 50 µM

Measured IC50 of CCOc1ccc(-n2nnc3cnc(Nc4cnn(CCCC5CCNCC5)c4)nc32)cc1 : < 0.3 µM

Measured IC50 of COCCOc1ccc(-n2nnc3cnc(Nc4cnn(C5CCN(C)CC5)c4)nc32)cc1 : 0.3 to 3 µM

Measured IC50 of CC(C)(OCCO)c1ccc(-n2nnc3cnc(Nc4cnn(C5CCOCC5)c4)nc32)cc1 : 0.3 to 3 µM

Measured IC50 of CN1CCC(n2cc(Nc3ncc4nnn(-c5ccc(F)c(Cl)c5)c4n3)cn2)CC1 : 3 to 50 µM

Measured IC50 of CN1CCC(n2cc(Nc3ncc4nnn(-c5cccc(F)c5)c4n3)cn2)CC1 : 0.3 to 3 µM

Measured IC50 of COc1ccc(-n2nnc3cnc(Nc4cnn(CCn5cccn5)c4)nc32)nc1 : 3 to 50 µM

Measured IC50 of COCCOc1ccc(-n2nnc3cnc(Nc4cnn([C@H]5CC[C@@H](O)CC5)c4)nc32)cc1 : 0.3 to 3 µM

Measured IC50 of COc1ccc(-n2nnc3cnc(Nc4cnn(-c5ccccc5)c4)nc32)cc1 : 3 to 50 µM

Measured IC50 of COCCN1CCC(n2cc(Nc3ncc4nnn(-c5ccc(OC)cc5)c4n3)cn2)CC1 : 0.3 to 3 µM

Measured IC50 of CN1CCC(n2cc(Nc3ncc4nnn(-c5ccc6nccnc6c5)c4n3)cn2)CC1 : 3 to 50 µM

Measured IC50 of Fc1cc(-n2nnc3cnc(Nc4cnn(C5CCOCC5)c4)nc32)ccc1Cl : 0.3 to 3 µM

Measured IC50 of CCOc1ccc(-n2nnc3cnc(Nc4cnn(CCOC(C)(C)C)c4)nc32)cc1 : 0.3 to 3 µM

Measured IC50 of CCn1cc(Nc2ncc3nnn(-c4ccc(C(C)(C)F)cc4)c3n2)cn1 : 0.3 to 3 µM

Measured IC50 of CCOc1ccc(-n2nnc3cnc(Nc4cnn(CCC5CCN(C(C)=O)CC5)c4)nc32)cc1 : 3 to 50 µM

Measured IC50 of CCn1cc(Nc2ncc3nnn(-c4ccc(C(C)(C)O)cc4)c3n2)cn1 : 0.3 to 3 µM
